Tested on: EL4
ASSAY NOTES: cells
MEASUREMENT SETUP: Mus musculus
pIC50: −log10 of the molar value.
OBSERVABLE: pIC50

In [3]: df
Out[3]:
                                   compound  test_system  recorded_value
0  COc1cc(C)c(Sc2cnc(NC(=O)c3ccc(CNC(C)C(C)(C)C)cc3)s2)cc1C(=O)N1CCN(C(C)=O)CC1 (stereo unspecified)          EL4            7.15

----------
ASSAY NOTES: Half life in mice at 10 mg/kg, iv
Assay type: ADME, organism-based
Design: dose 10 mg/kg, route intravenous
MEASUREMENT SETUP: mouse, in vivo
OBSERVABLE: half-life (h)

>>> df
                                   molecule  observable  unit_info  recorded_value
0  COc1cc(C)c(Sc2cnc(NC(=O)c3ccc(CNC(C)C(C)(C)C)cc3)s2)cc1C(=O)N1CCN(C(C)=O)CC1 (stereo unspecified)   half-life          h             1.3

----------
ASSAY NOTES: Clearance in mice at 10 mg/kg, iv
Assay type: ADME, organism-based
Design: dose 10 mg/kg, route intravenous
MEASUREMENT SETUP: mouse, in vivo
OBSERVABLE: clearance (mL/min/kg)

                                   compound  observable  recorded_value
0  COc1cc(C)c(Sc2cnc(NC(=O)c3ccc(CNC(C)C(C)(C)C)cc3)s2)cc1C(=O)N1CCN(C(C)=O)CC1 (stereo unspecified)   clearance             116

----------
Readings of Stability for the listed compounds
Species: Mus musculus
ASSAY NOTES: Stability in mouse liver microsomes assessed as degradation rate per mg of protein
Format: ADME
MEASUREMENT SETUP: mouse
OBSERVABLE: Stability

>>> df
                                   compound  observable     recorded_value
0  CC(=O)N1CCN(C(=O)c2cc(Sc3cnc(Nc4cccc(Br)n4)s3)ccc2O)CC1   Stability  > 0.3 nmol/min/mg
1  CNCc1ccc(C(=O)Nc2ncc(Sc3cc(C(=O)N4CCOCC4)c(OC)cc3C)s2)[nH]1   Stability    0.1 nmol/min/mg
2  COc1cc(C)c(Sc2cnc(NC(=O)C3CC3C(=O)O)s2)cc1C(=O)N1CCN(C(C)=O)CC1 (centres undefined)   Stability  < 0.1 nmol/min/mg
3  O=C(O)C1CCCN(C(=O)c2cc(Sc3cnc(Nc4cccc(Br)n4)s3)ccc2O)C1 (centres undefined)   Stability  < 0.1 nmol/min/mg
